- assay_system: T1, human SLC34A2 (human, UniProt O95436 1-690)
- T1 construct: whole, on cells; also called human solute carrier 34 A2; NaPi2b
- T1 sequence (looked up): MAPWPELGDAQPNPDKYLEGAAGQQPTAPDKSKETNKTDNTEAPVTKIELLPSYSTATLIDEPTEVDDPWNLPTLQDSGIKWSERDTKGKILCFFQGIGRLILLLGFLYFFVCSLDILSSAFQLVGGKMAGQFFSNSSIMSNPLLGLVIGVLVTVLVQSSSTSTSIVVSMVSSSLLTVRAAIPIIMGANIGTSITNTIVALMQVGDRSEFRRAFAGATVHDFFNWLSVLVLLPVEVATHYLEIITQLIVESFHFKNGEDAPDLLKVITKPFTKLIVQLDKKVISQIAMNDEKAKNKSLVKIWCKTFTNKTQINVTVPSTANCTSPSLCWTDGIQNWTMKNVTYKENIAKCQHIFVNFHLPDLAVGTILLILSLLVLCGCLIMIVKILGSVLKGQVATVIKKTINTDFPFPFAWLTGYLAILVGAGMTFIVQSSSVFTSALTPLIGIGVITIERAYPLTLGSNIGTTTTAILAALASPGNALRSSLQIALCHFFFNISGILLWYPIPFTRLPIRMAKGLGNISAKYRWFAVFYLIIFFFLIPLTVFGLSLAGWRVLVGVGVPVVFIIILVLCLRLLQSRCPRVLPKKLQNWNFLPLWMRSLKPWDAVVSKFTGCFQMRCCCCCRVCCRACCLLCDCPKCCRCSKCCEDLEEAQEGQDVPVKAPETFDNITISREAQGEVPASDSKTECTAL
- procedure_summary: FACS, OVCAR3 cells
Values of Top (MFI) strictly less than 40000 MFI map to Satisfied, and values of at least 40000 MFI map to Not satisfied.

Consider the worked cases shown below.
binder="xi71F7D4 hIgG1 (antibody, V domains shown, chimeric, hIgG1) VH: DVKLVESGGDLVKLGGSLKLSCAASGFTFSNYYMSWVRQTPEKRLELVAVINSNGGTTYYPDNMKGRFTISRDNAKNTLYLQTSSLKSEDTALYYCGRHEHYYGTNIAWFAYWGQGTLVTVSA VL: DIVMTQSHKFMSTSVGDRVSITCKASQDVTTAVAWYQQKPGQSPKLLIYWASTRHTGVPDRFTGSGSGTDHTLTISSVQAEDLALYYCQQHYSTPVTFGGGTKLEIK" discrete_label=Satisfied
binder="xi18G1H4 hIgG1 (antibody, V domains shown, chimeric, hIgG1) VH: QVQLQQPGAELVKPGASVRMSCKASAYTFTTYNLHWVKQTPGQGLEWIGAISPGNGVTSYNQKFRGKATLTADKSSSTAYMQLSSLTSEDSAVYYCARGYGYSVGAMDYWGQGTSVTVSS VL: DIQMTQTTSSLSASLGDRVNISCSASQGIGNFLNWYQQKPDGTVKLLIYYTSSLHSGVPPRFSGSGSGTDYSLTISNLEPEDIATYYCQQYHKLPLTFGAGTKLELK" discrete_label="Not satisfied"
binder="xi28G3C6B9 hIgG1 (antibody, V domains shown, chimeric, hIgG1) VH: QVQLQQPGAEVVKPGASVKMSCKASGYTFTSYIIHWVKQAPGQGLEWIGAIYPGNGDTSYSQRFKGKAKLTADKSSSTAYMQLNSLTSEDSVVYYCARGNNYGSPAWFGYWGQGTLVTVSA VL: DIVLTQSPVTLSVTPGDRVSLSCRASQSIGNFLYWYQQKSHESPRLLIKYASQSMSGIPSRFSGSGSGTDFTLSISRVETEDFGMYFCQQSNSWPVTFGAGTKLELK" discrete_label="Not satisfied"
binder="xi90G10H7 hIgG1 (antibody, V domains shown, chimeric, hIgG1) VH: QVQLQQPGAVLVKPGASVKMSCKASGYTFTSYIIHWVKQTPGQGLEWVGAIYPGNGDASSIQKFKGKATLTVDKSSSTAYMQLSSLTSADSAVYYCARGHYYGSAAWFAYWGQGTLVTVSA VL: DILLTQSPAILSVSPGERVSFSCRASQNIGTGIHWYQQRTNGSLRLLIKYASESISGIPSRFSGSGSGTDFTLSINSVESEDIADYYCQQSNSWPLTFGAGTKLELK" discrete_label="Not satisfied"
binder="xi87H12B7 hIgG1 (antibody, V domains shown, chimeric, hIgG1) VH: QVQLQQPGAEVVRPGASVKMSCKASGYTFTSYIVHWVKQPPGQGLEWIGAIYPGNGDTSYIQKFKGRATLTADKSSSTVYMQLSSLTSEDSAVYYCARGHYYGSAAWFGFWGQGTLVTVSA VL: DILLTQSPAILSVSPGERVSFSCRASQNIGTSIHWYQQRTNDSPRLLMRYASESVSGIPSRFSGSGSGTDFTLSINSVESEDIADYYCQQSNTWPLTFGAGTKLELK" discrete_label=Satisfied

Consider the additional binder presented here.
Below 40000 MFI on Top (MFI)? Entry xi63A11D5B4 hIgG1 (antibody, V domains shown, chimeric, hIgG1) VH: QVQLQQPGAELVKPGASVKMSCRTSGYTFITYNMHWVKQTPGQGREWIGAIYPGNGDTSYNQKFKGKATLTADKSSSTAYMQLNSLTSEDSAVYYCSISTIITTGAVDYWGQGTSVTVAS VL: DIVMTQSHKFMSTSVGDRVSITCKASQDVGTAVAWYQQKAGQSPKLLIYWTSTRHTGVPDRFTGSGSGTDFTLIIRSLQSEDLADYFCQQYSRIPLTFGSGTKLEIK
Not satisfied

Source listed as patent US20240301052A1.
